These data points were gathered from PubChem BioAssay (Tox21).

# assay.summary: qHTS assay to identify small molecule agonists of the androgen receptor (AR) signaling pathway in the presence of an antagonist - cell viability counter screen (AID 1259379); also: nearly all actives have a fitted effect of over 25% in size
# condition.description: MDA-kb2 viability, CellTiter-Fluor, 16 h; series mostly up to 92.4 µM
Results filed as inconclusive are left out. The source made the active and inactive calls. Calls follow the shape of the dose curve; as a rule, active = well fitted cell-killing curve with a large enough effect in the repeat runs; inconclusive = weak or mixed curves, or effect the other way; inactive = flat fitted curve, though single readings scatter.
Labels: active, inactive

[
  {
    "molecule": "O=C(Oc1ccc(Br)cc1)N1CCN2CCC1CC2",
    "label.value": "inactive"
  },
  {
    "molecule": "COc1cccc2c1cc([N+](=O)[O-])c1c(C(=O)O)cc3c(c12)OCO3",
    "label.value": "active"
  },
  {
    "molecule": "c1cc2c(c(N3CCNCC3)c1)OCCO2",
    "label.value": "inactive"
  },
  {
    "molecule": "CC(C)[N+](=O)[O-]",
    "label.value": "inactive"
  },
  {
    "molecule": "C[C@]12CC[C@H]3[C@@H](CCC4=CC(=O)CC[C@@]43C)[C@@H]1CC[C@@H]2C(=O)O",
    "label.value": "inactive"
  },
  {
    "molecule": "CN1C[C@@H](NS(=O)(=O)N(C)C)C[C@@H]2c3cccc4c3c(cn4C)C[C@H]21",
    "label.value": "inactive"
  },
  {
    "molecule": "C[C@@H]1CN(C2CCC(C#N)(c3ccc(F)cc3)CC2)CC[C@]1(C(=O)O)c1ccccc1 (some centres not stated)",
    "label.value": "inactive"
  },
  {
    "molecule": "O=C1OC(=O)C2C1C1(Cl)C(Cl)=C(Cl)C2(Cl)C1(Cl)Cl (configuration not stated)",
    "label.value": "inactive"
  },
  {
    "molecule": "CC1CN1P(=O)(N1CC1C)N1CC1C (configuration not stated)",
    "label.value": "inactive"
  },
  {
    "molecule": "CC(C)CC#N",
    "label.value": "inactive"
  },
  {
    "molecule": "COC(C)(C)C",
    "label.value": "inactive"
  },
  {
    "molecule": "C[N+](=O)[O-]",
    "label.value": "inactive"
  },
  {
    "molecule": "CC1COC2(c3ccccc3Cl)c3cc(Cl)ccc3NC(=O)CN12 (configuration not stated)",
    "label.value": "inactive"
  },
  {
    "molecule": "COCC(=O)N(c1c(C)cccc1C)N1CCOC1=O",
    "label.value": "inactive"
  },
  {
    "molecule": "COc1ccc(C(=O)N2CCCC2=O)cc1",
    "label.value": "inactive"
  },
  {
    "molecule": "CCOP(=S)(OCC)Oc1ncn(-c2ccccc2)n1",
    "label.value": "inactive"
  },
  {
    "molecule": "CC(C)(C)NCC(O)c1cc(Cl)c(N)c(Cl)c1 (configuration not stated)",
    "label.value": "inactive"
  },
  {
    "molecule": "CCC#N",
    "label.value": "inactive"
  },
  {
    "molecule": "OC(c1ccc(F)cc1)(c1cncnc1)c1ccccc1Cl (configuration not stated)",
    "label.value": "inactive"
  },
  {
    "molecule": "Fc1cc(Br)ccc1CBr",
    "label.value": "inactive"
  },
  {
    "molecule": "Cc1ncc(CNC(=O)N(CCCl)N=O)c(N)n1",
    "label.value": "inactive"
  },
  {
    "molecule": "CCCCCCI",
    "label.value": "inactive"
  }
]
